target: APE1 (Homo sapiens); construct: made in house; experiment: Fluorescence polarization (FP) displacement assay of APE1 binding to AP-DNA probe; conditions: read-out: FP IC50;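 note: TAMRA 5′-labeled duplex DNA with THF abasic site (5 nM) and APE1 (20 nM), Mg2+-free buffer, 15 min at room temperature, inhibition seen as lowered polarization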
observable: IC50

For record COc1ccc(NC(=O)CN(C)C(=O)c2cc3c(s2)CCC3)cc1 [MLS001081306] the listed IC50 is > 57 µM

---

target: double-stranded 17-mer DNA fragment; experiment: ThO (Thiazole Orange) DNA displacement assay; assay type: binding; conditions: read-out: ThO-DNA binding IC50;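 note: miniaturized displacement of the intercalating dye from unlabeled duplex DNA, used to flag nonspecific DNA binders, chiefly intercalators, groove binders may be missed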
observable: IC50

COc1ccc(C(CC(=O)N2CCCCC2)c2c(OC)cc(OC)c3c(-c4ccccc4)cc(=O)oc23)cc1 (stereo not shown) = > 57 µM
O=C(OCC1O[C@@H](OC(=O)c2cc(O)c(O)c(O)c2)[C@@H](OC(=O)c2cc(O)c(O)c(O)c2)[C@@H](OC(=O)c2cc(O)c(O)c(O)c2)[C@@H]1OC(=O)c1cc(O)c(O)c(O)c1)c1cc(O)c(O)c(O)c1 (stereo partly shown) = 4 µM
Cc1c(C(=O)OCC2CCCO2)[nH]c2c1C(=O)CC(c1ccco1)C2 (stereo not shown) = > 57 µM

Proceeding to the next compound to report its IC50.
For record O=C(CCc1n[nH]c(=O)[nH]c1=O)N/N=C/c1ccco1 the listed IC50 is > 57 µM

---

target: E. coli Endo IV (Escherichia coli); construct: made in house; assay: E. coli Endo IV profiling counterscreen; type: biochemical;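 note: selectivity counterscreen of candidate APE1 inhibitors against the bacterial endonuclease Endo IV, run in the same assay format as the primary APE1 high-throughput screen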
In this section we review reported pIC50 values for a set of compounds.
pIC50 is a log-scale quantity: -log10 of the concentration expressed in molar.

For record COc1cc2c(ccc3cc(OC)c(OC)c(O)c32)cc1O the listed pIC50 is 5.05

For record COc1ccc2nc3cc(Cl)ccc3c(Nc3cc(CN4CCCC4)c(O)c(CN4CCCC4)c3)c2n1 [MLS001306480, pyronaridine, reference compound] the listed pIC50 is 4.54

---

molecular target: APE1 (Homo sapiens); construct: made in house; assay: Gel-based radiotracer (32P) APE1 incision assay; assay type: biochemical; set-up: concentration or dose not given beside the values; conditions: percent incision shown; entries 1-112;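 note: APE1 incision reactions ran 5 min at 37 °C, with cleaved product and intact substrate resolved electrophoretically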
Outcome label depends on Radiotracer Assay (%Activity) relative to 20%: at/above gives fulfilled, below gives not fulfilled.

Would you say CC(=O)N[C@H]1C(O[C@@H]2O[C@H](C[C@@H](O)[C@H]3O[C@@H](N4CCC(=O)NC4=O)[C@H](O)[C@@H]3O)[C@H](O)[C@H](O)[C@H]2NC(=O)/C=C/CCCCCCCCCCC(C)C)OC(CO)[C@@H](O)[C@@H]1O (some centres unmarked) shows Radiotracer Assay (%Activity) at minimum 20%?
fulfilled

Would you say COc1cc(/C=N/Nc2ccc(C(=O)O)cc2)ccc1O shows Radiotracer Assay (%Activity) at minimum 20%?
fulfilled

Would you say O=C1CCCC(O)=C1N=Nc1ccc(C(=O)O)cc1 shows Radiotracer Assay (%Activity) at minimum 20%?
fulfilled

Would you say O=C(/C=C/c1ccco1)NCc1ccco1 shows Radiotracer Assay (%Activity) at minimum 20%?
fulfilled

---

biological target: APE1 (Homo sapiens, UniProt P27695); construct: made in house; assay: Fluorogenic kinetic qHTS APE1 incision assay (primary screen and retest of cherrypicked samples); assay type: biochemical; conditions: APE1 Retest IC50, retest of cherrypicked sample;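 note: purified APE1 cleaving a fluorophore/dark-quencher labelled 17-mer duplex DNA bearing a tetrahydrofuran AP site, fluorescence rise followed kinetically over the first 2 min, inhibition normalized to controls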
Sequence (P27695 whole entry): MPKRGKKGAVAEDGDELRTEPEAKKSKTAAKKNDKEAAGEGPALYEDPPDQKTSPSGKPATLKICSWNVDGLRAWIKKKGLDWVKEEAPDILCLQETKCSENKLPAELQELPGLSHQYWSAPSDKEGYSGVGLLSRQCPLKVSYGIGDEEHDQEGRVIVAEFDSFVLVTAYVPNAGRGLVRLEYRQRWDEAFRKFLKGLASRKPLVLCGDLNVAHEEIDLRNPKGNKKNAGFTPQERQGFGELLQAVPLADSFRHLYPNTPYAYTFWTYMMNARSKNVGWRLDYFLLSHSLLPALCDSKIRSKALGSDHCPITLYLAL
observable: IC50 (µM)
Write it as a number; the unit µM goes unstated.

For record O=C1NC(=O)N(Cc2ccco2)C(=O)C1=CC=Cc1ccco1 [MLS000587064] the listed IC50 is 5
